Value source: ChEMBL document CHEMBL1671662

- Tested on: Prevotella melaninogenica
- ASSAY NOTES: Antibacterial activity against Prevotella melaninogenica by CLSI M11-A6 agar dilution method
- Format: functional
METRIC NAME: MIC90 (µg/mL)

# COMPOUND, UNITS, QUAL, OBSERVED MEASUREMENT
data = [
    ("CCCCCCCCCCNCCN[C@@]1(C)C[C@H](O[C@H]2[C@H](Oc3c4cc5cc3Oc3ccc(cc3Cl)[C@@H](O)[C@@H](NC(=O)[C@@H](CC(C)C)NC)C(=O)N[C@@H](CC(N)=O)C(=O)N[C@H]5C(=O)N[C@H]3C(=O)N[C@H](C(=O)N[C@H](C(=O)O)c5cc(O)c(CNCP(=O)(O)O)c(O)c5-c5cc3ccc5O)[C@H](O)c3ccc(c(Cl)c3)O4)O[C@H](CO)[C@@H](O)[C@@H]2O)O[C@@H](C)[C@H]1O [TELAVANCIN]", "µg/mL", "=", 64),
    ("CC(=O)NC[C@H]1CN(c2ccc(N3CCOCC3)c(F)c2)C(=O)O1 [LINEZOLID]", "µg/mL", "=", 2),
    ("CCCCCCCCCC(=O)N[C@@H](Cc1c[nH]c2ccccc12)C(=O)N[C@H](CC(N)=O)C(=O)N[C@@H](CC(=O)O)C(=O)N[C@@H]1C(=O)NCC(=O)N[C@@H](CCCN)C(=O)N[C@@H](CC(=O)O)C(=O)N[C@H](C)C(=O)N[C@@H](CC(=O)O)C(=O)NCC(=O)N[C@H](CO)C(=O)N[C@@H]([C@H](C)CC(=O)O)C(=O)N[C@@H](CC(=O)c2ccccc2N)C(=O)O[C@@H]1C", "µg/mL", ">", 128),
    ("CCC[C@@H]1C[C@@H](C(=O)N[C@@H]([C@H]2O[C@H](SC)[C@H](O)[C@@H](O)[C@H]2O)[C@H](C)Cl)N(C)C1 [CLINDAMYCIN]", "µg/mL", "≤", 0.12),
    ("CN[C@H](CC(C)C)C(=O)N[C@H]1C(=O)N[C@@H](CC(N)=O)C(=O)N[C@H]2C(=O)N[C@H]3C(=O)N[C@H](C(=O)N[C@H](C(=O)O)c4cc(O)cc(O)c4-c4cc3ccc4O)[C@H](O)c3ccc(c(Cl)c3)Oc3cc2cc(c3O[C@@H]2O[C@H](CO)[C@@H](O)[C@H](O)[C@H]2O[C@H]2C[C@](C)(N)[C@H](O)[C@H](C)O2)Oc2ccc(cc2Cl)[C@H]1O [VANCOMYCIN]", "µg/mL", ">", 128),
    ("Cc1ncc([N+](=O)[O-])n1CCO [METRONIDAZOLE]", "µg/mL", "=", 1),
]
